# Test system: CCRF-CEM
# procedure-details: NCI tumour cell line growth inhibition, 48 h
Activity calls are given as the source filed them. Cut-off read from the data, not from the text of the source: active = GI50 up to about 1.1 µM and inactive = higher.
Please state which outcome applies, choosing from label 1 = active, label 0 = inactive

Query: What did the test return for N#Cc1sc2c(c1OC(=O)c1ccc(Cl)cc1Cl)c(=O)n(-c1ccccc1)c(=S)n2-c1ccccc1 ?
Result: label 0

Query: Another: CCCCCCCC(=O)OC[n+]1ccc(-c2c(COC(=O)NC(C)C)c(COC(=O)NC(C)C)c3n2CCC3)cc1
Result: label 0

Query: Then CNC(=S)/C(=N\Nc1[nH]cnc1C(N)=O)C(N)=S ?
Result: label 1

Query: Param item: COc1ccccc1NC(=O)C1=C(C)NC(C)=C(C(=O)Nc2ccccc2OC)C1c1ccco1
Result: label 0

Query: Now this one: COc1ccccc1NC(=S)N/N=C/c1c(C)n(C)n(-c2ccccc2)c1=O
Result: label 0

Query: Also check CCc1ccc(/C=C\c2cc(OC)c(OC)c(OC)c2)cc1
Result: label 1

Query: # iterate: CC(=O)OCC1OC(n2cc(I)c(=O)[nH]c2=O)C(OC(C)=O)C(OC(C)=O)C1OC(C)=O (centres undefined)
Result: label 0

Query: Can you handle O=c1[nH]c2c(c(=O)[nH]1)SSC2 next?
Result: label 1

Query: Next molecule: CCOC(=O)NC(=O)c1cn(CCSCCOC(=O)NCCCCCCNC(=O)OCCSCCn2cc(C(=O)NC(=O)OCC)c(=O)[nH]c2=O)c(=O)[nH]c1=O
Result: label 0

Query: Please answer likewise for Cc1ccc(NC(S)=Nc2c(C)n(C)n(-c3ccccc3)c2=O)cc1
Result: label 0

Query: // same read-out, input: c1ccc(COc2cccc3cccnc23)cc1
Result: label 0

Query: Likewise for c1ccc2oc(-c3ccc(-c4nc5ccccc5o4)c4c3CC4)nc2c1 ?
Result: label 0

Query: Then this molecule: CC(C)=CCC[C@H](C)[C@H]1CC[C@@H](C)c2cc(O)c(C)cc21
Result: label 0

Query: Same read-out for N#Cc1c2c(c(Nc3ccc(Cl)cc3)n3c1nc1ccccc13)CCCC2 ?
Result: label 0

----------
Exercise: state measured GI50 for each of the compounds provided.
# System: NCI-H23
# procedure-details: NCI tumour cell line growth inhibition, 48 h
Calls of active or inactive are those of the source. Rule as the data show it: active = GI50 up to about 1.1 µM and inactive = higher.

Query: Consider the compound shown here: NC(CCC(=O)c1ccccn1)C(=O)O (stereo not given) What is its recorded GI50?
Result: > 100 µM (inactive)

Query: What about this compound? CCOC(=O)C(NC(=O)CC)(Nc1ccc(F)cc1F)C(F)(F)F (stereo not given)
Result: > 100 µM (inactive)

Query: Same question, O=C(Nc1ccc(Br)c2ccccc12)c1ccc2ccccc2c1O this time
Result: 1.9 µM (inactive)

Query: Another compound: CCOC(=O)c1c(C)n(CCN2CCN(C)CC2)c2ccc(OC)cc12
Result: > 100 µM (inactive)

Query: How about this compound: CCOc1ccc2c(c1)NC(=O)C(C1OC(c3ccccc3)=CC1=O)S2 (stereo not given)
Result: 28.2 µM (inactive)

Query: What would you report for O=C(n1c(=O)n(-c2ccc([N+](=O)[O-])cc2)c(=O)n1C(=O)C(Cl)(Cl)Cl)C(Cl)(Cl)Cl ?
Result: > 100 µM (inactive)

Query: Now give it for N#CC(=N)c1ncn(-c2ccccc2N)c1N too.
Result: > 100 µM (inactive)

Query: What about this compound? Cc1nc(-n2[nH]c(C)c(CCO)c2=O)[nH]c(=O)c1CCO
Result: > 100 µM (inactive)

Query: Follow-up entry: Cc1c(C)c2cc3c(=O)ccoc3c(C)c2oc1=O
Result: > 100 µM (inactive)

Query: Input COc1ccc(OC)c(CC(=O)c2ccc(O)c(C(=O)NCCc3ccc(F)cc3)c2)c1
Result: 3.12 µM (inactive)

----------
# Test system: SR
# procedure-details: NCI tumour cell line growth inhibition, 48 h
Calls of active or inactive are those of the source. Cut-off read from the data, not from the text of the source: active = GI50 up to about 1.1 µM and inactive = higher.
Please provide measured GI50 for the entries that follow.

Query: Form field: reported GI50 of COC(=O)N/N=C(\C)c1c(O)cc(C)oc1=O
Result: 37.2 µM (inactive)

Query: Quick one: CCSC1=CC(Cc2ccc(OC)cc2)N(C(=O)OC)C1 (stereo unspecified)
Result: 26.3 µM (inactive)

Query: Next compound up: COc1ccc(C(=O)C#Cc2cnc(O)nc2O)cc1
Result: 2.76 µM (inactive)

Query: Check CCOC(=O)c1c(N2CCOCC2)[nH]c(=O)c(C(c2ccco2)c2c(O)c(C(=O)OCC)c(N3CCOCC3)[nH]c2=O)c1O too.
Result: > 100 µM (inactive)

Query: Same lookup for C[C@]12CCC(=O)C=C1CC[C@@H]1[C@@H]2[C@@H](O)C[C@@]2(C)[C@H]1CC[C@]2(O)C(=O)CO [HYDROCORTISONE] , please.
Result: > 100 µM (inactive)

Query: Request: CC(C)(C)c1ccc(-c2nc3ccc(Cl)cc3c(=O)o2)cc1
Result: 16.4 µM (inactive)

Query: Next compound up: O=C1Cc2c(-c3ccc(Cl)cc3)cc(-c3ccccc3)nc2-c2ccccc2N1
Result: 7.13 µM (inactive)

Query: Now try Cc1ccc(/N=N/C(=N/NC(=O)c2ccccc2)c2ccc(N(CCC#N)CCC#N)cc2C)cc1 .
Result: 5.79 µM (inactive)

Query: Now this one: CC(=O)c1sc(Nc2ccc(Cl)c(Cl)c2)nc1C
Result: 60.3 µM (inactive)

Query: Record: O=C(O)c1nc2nc(Cl)c(Cl)nc2[nH]1
Result: > 100 µM (inactive)

Query: And then CCOC(=O)c1c(C)n(CCN2CCN(C)CC2)c2ccc(OC)cc12 , what is it?
Result: 20 µM (inactive)

Query: Moving on to the next compound: CCOC(=O)/C(C#N)=C/c1ccnc2ccccc12
Result: 2.28 µM (inactive)

Query: Then what about the compound S=C1NC2=C(COC/C2=C\c2ccccc2Cl)C(c2ccccc2Cl)N1 (stereo unspecified) ?
Result: 2.84 µM (inactive)

Query: And then COc1cc(C=C(c2ccc(N(C)C)cc2)c2ccc(N(C)C)cc2)c2ccccc2c1OC , what is it?
Result: 22.3 µM (inactive)

Query: Subsequent entry: Cc1cc(=O)oc2c(CNC(Cc3ccccc3)C(=O)O)c(O)ccc12 (stereo unspecified)
Result: > 100 µM (inactive)

Query: Can you handle c1ccc(/N=C2/SC3=Nc4cccc5cccc(c45)N3/C2=N/c2ccccc2)cc1 next?
Result: > 100 µM (inactive)

----------
# System: NCI-H460
# procedure-details: NCI tumour cell line growth inhibition, 48 h
Activity calls are given as the source filed them. No stated cut-off is given here; in the data, active = GI50 up to about 1.1 µM and inactive = higher.
The categories you may choose from are 1 (yes) for active, 0 (no) for inactive

Query: Which outcome was entered for the molecule OCc1ccc2c(c1)CC1(Cc3ccccc3C1)C2 in this test?
Result: 0 (no)

Query: // repeat for COc1ccc(/C(C)=C2\CCCN(Cc3ccccc3)C2)cc1 and report
Result: 0 (no)

Query: Likewise for CC1=NC(C(=O)O)Cc2c1[nH]c1ccccc21 (stereo not given) ?
Result: 0 (no)

Query: Likewise for O=[As]O ?
Result: 0 (no)

Query: // same read-out, input: CC1=NN(C(=O)CC(=O)NC(=O)CC(=O)Nc2ccccc2F)C(=O)C1/N=N/c1ccc([N+](=O)[O-])cc1 (stereo not given)
Result: 0 (no)

Query: Let us now turn to COc1cc(/C=N/n2c(-c3ccccc3)nn(C(C)=O)c2=O)cc(OC)c1OC
Result: 1 (yes)

Query: What do we get for COC(=O)c1cccc(C(=O)OC)c1 ?
Result: 0 (no)

Query: Next up: CC1C(NNc2ccccc2)Oc2cc3c(cc2C1c1ccccc1O)OCO3 (stereo not given)
Result: 0 (no)

Query: Try Cc1nc2sccn2c1C(=O)N/N=C1\SCC(=O)N1C next.
Result: 0 (no)

Query: Please give the result for O=C1NC2(CCCCC2)C2CCCCCC12 (stereo not given) too.
Result: 0 (no)

Query: Ok, now C=C(C)[C@H]1Cc2c(ccc3c2O[C@@H]2COc4cc(OC)c(OC)cc4[C@@H]2C3=O)O1
Result: 1 (yes)

Query: Same thing, different molecule: CCCCCCc1cc(C(=O)Nc2ccc(Cl)cc2)nc(S)n1
Result: 0 (no)

Query: Item: COc1ccc(/N=C/c2ccc(N(CCC#N)S(=O)(=O)c3ccccc3)cc2)cc1
Result: 0 (no)

Query: Next entry: C=CC(C)(O)CCC1C(=C)C(O)CC2C(C)(C)CCCC12C (stereo not given)
Result: 0 (no)

Query: // next record c1ccc(COc2cccc3cccnc23)cc1
Result: 0 (no)

----------
# System: Hs-578T
# procedure-details: NCI tumour cell line growth inhibition, 48 h
Active and inactive are the calls of the source. No stated cut-off is given here; in the data, active = GI50 up to about 1.1 µM and inactive = higher.
I'd appreciate it if you could supply GI50 values for the items below.

Query: State the recorded GI50 for this entry: O=C(CC(C(=O)c1ccsc1)c1cccs1)c1ccccc1 (stereo unspecified)
Result: > 100 µM (inactive)

Query: // next record CC(=O)Nc1ccc(-c2nc3ccccc3s2)cc1Cl
Result: 17.9 µM (inactive)

Query: Please answer likewise for O=C1OCCC[C@H]2O[C@@H](COCc3ccccc3)C[C@@H]12
Result: > 100 µM (inactive)

Query: Also CCOC(=O)c1c(NC(=O)c2ccccc2)sc2c1CCCC2 ?
Result: > 100 µM (inactive)

Query: Field entry: NCS(=O)(=O)O
Result: > 100 µM (inactive)

Query: Ok, now O=C1CSC(c2cccc([N+](=O)[O-])c2)N1c1ccc(-c2ccc(-n3c(-c4ccccc4)nc4ccccc4c3=O)cc2)cc1 (stereo unspecified)
Result: 49.1 µM (inactive)
